tested on: Wild-type HIVLAI; assay: Drug susceptibility assay in P4/R5 cells, recombinant virus; format: cell-based, HIV-1; details: Human immunodeficiency virus 1, P4/R5; Wild-type; mean ± SD, at least three experiments; read-out: IC50
recorded-metric: IC50 (µM)
Express the result in µM but write the number alone.

Need IC50, item Cc1cn([C@H]2C[C@H](N=[N+]=[N-])[C@@H](CO)O2)c(=O)[nH]c1=O
0.2

----------
test system: HIVLAI RT D67N/K70R/A371V/Q509L; assay: Drug susceptibility assay in P4/R5 cells, site-directed mutant; format: cell-based, HIV-1; details: D67N/K70R/A371V/Q509L compared to wild-type
recorded-metric: Fold-Resistance

// below: answered compounds
[[record]]
compound = "C[C@H](Cn1cnc2c(N)ncnc21)OCP(=O)(O)O [tenofovir]"
result = "2.2 fold"

[[record]]
compound = "Nc1nc(NC2CC2)c2ncn([C@H]3C=C[C@@H](CO)C3)c2n1 [abacavir]"
result = "2.0 fold"

[[record]]
compound = "Cc1cn([C@H]2C=C[C@@H](CO)O2)c(=O)[nH]c1=O [stavudine]"
result = "1.3 fold"


Now consider the entry below.
Need Fold-Resistance, item Nc1ccn([C@@H]2CS[C@H](CO)O2)c(=O)n1 [lamivudine]
5.2 fold
